- Target Entity: T1, AAV9 (adeno-associated virus 9)
- T1 construct: also called adeno-associated virus serotype 9
- Protocol: SPR, AAV amine-coupled to CM5 chip;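 further: nanobodies flowed as analyte at seven concentrations spanning 1–100 nM over immobilized AAV (500–800 RU), kinetic constants derived by fitting the binding curves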
Hi! Could you tag entries with Kd below 10 nM as yes, and those at or above as no? Much appreciated.

See these solved cases before continuing.
A4-076 (VHH) VHH: VQLQESGGGLVHSGGSLRLSCAASGSMFSLNTMGWYRQAPGKQRELVATITRGGGTSYADSVKGRFTISRDNAKNTVYLQMNSLRPEDTAVYYCHVDELRQSSWTTSNLWGQGTQVTVSS | yes
A4-058 (VHH) VHH: VQLQESGGGLVQPGGSLRLSCAASGSIFSINTMGWYRQAPAKQREIVATVTRDGSTNYAESVKGRFTISRDNAKNTVYLQMNSLRPEDTAVYYCHLDEVRQSTWTTSNLWGQGTQVTVSS | yes
A4-088 (VHH) VHH: VQLQESGGGLVQTGGSLRLSCAASGSRFSLNTMGWYRQAPGKQRELVAAVTRGGNTNYGDFVKGRFTISRDNAKNTVYLQMNSLRPEDTAVYYCHVDELRESSWTTSNLWGQGTQVTVSS | no

Confirm or reject: Kd of A4-062 (VHH) VHH: VQLQESGGGLVQAGGSLRLSCAASGSSFSINAMGWYRQAPGKQRELVATVTRGGTTNYADSVKGRFTISRDNPKNTVYLQMNSLRPEDTAVYYCHLDEVRESSWTTSNLWGQGTQVTVSS lies strictly below 10 nM
yes

Also A4-092 (VHH) VHH: VQLQESGGGLVQTGGSLRLSCLASGSIFSINTMGWYRQRAGKQRELVATVTRAGSTNYADSVKGRFTISRDNAKNTVYLQMNSLRPEDTAVYYCHVDEIRESSWTTSNLWGQGTQVTVSS ?
yes

Now try A4-064 (VHH) VHH: VQLQESGGGLVQSGGSLRLSCAASGRNFSLNTVGWYRQAPGKQRELVATVTSGGGTNYAGSVKGRFTISRDNAKNTVYLQMNSLRPEDTAVYYCHVDEVRESTWTTSNLWGQGTQVTVSS .
no

Follow-up item: A4-094 (VHH) VHH: VQLQESGGGLVQPGGSLRLSCVASGSIFVINTMGWYRQAPGKQRELVATVTRDGGTNYADSVKGRFTISRDNAKNTVYLQMNSLRPEDTAVYYCHIDEIRESSWTTSNLWGQGTQVTVSS
no
